target: Recombinant human DDR2 (Homo sapiens (Human)); test: LanthaScreen Eu Kinase Binding Assay, DDR2; conditions: DDR2 1.75 nM (aa427-855, GST tag), Kinase Tracer 178 10 nM; read-out: DDR2 pIC50 (converted)
Sequence (Q16832 427-855): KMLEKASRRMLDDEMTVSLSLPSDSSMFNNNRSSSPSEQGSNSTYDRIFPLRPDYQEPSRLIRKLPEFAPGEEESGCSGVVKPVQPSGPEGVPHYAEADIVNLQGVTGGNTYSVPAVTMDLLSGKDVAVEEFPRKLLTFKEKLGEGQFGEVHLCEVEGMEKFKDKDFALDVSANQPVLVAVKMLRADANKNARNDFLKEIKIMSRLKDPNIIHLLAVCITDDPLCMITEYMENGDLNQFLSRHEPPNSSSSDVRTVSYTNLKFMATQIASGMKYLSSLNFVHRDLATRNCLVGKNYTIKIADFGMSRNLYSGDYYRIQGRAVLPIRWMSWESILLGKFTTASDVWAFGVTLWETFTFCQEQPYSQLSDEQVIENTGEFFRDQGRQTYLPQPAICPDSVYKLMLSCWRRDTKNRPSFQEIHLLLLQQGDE
Assign IC50 to each entry below.

[[record]]
compound = "CN(C)Cc1ccc(NC(=O)CN2Cc3cccc(Nc4ccc5c(cnn5C)c4)c3C2=O)cc1C(F)(F)F"
recorded_measurement = "10 to 100 nM"

[[record]]
compound = "CN(c1ccc2[nH]nc(C#N)c2c1)c1cccc2c1C(=O)N(CC(=O)N1CCC[C@H]1C(F)(F)F)C2"
recorded_measurement = "10 to 100 nM"

[[record]]
compound = "Cn1ncc2cc(Nc3cccc4c3C(=O)N(CC(=O)N3CCCC(C(F)(F)F)C3)C4)ccc21 (stereo not shown)"
recorded_measurement = "10 to 100 nM"


API: the following record is the query input.
Prompt line: Record Cn1ncc2cc(Nc3cccc4c3C(=O)N(CC(=O)NC3CC3(F)F)C4)cnc21 (stereo not shown) : what is its IC50 with Recombinant human DDR2 (Homo sapiens (Human))?
Response line: 100 to 1000 nM

* * *

target: Recombinant human DDR1 (Homo sapiens (Human), UniProt Q08345); experiment: LanthaScreen Eu Kinase Binding Assay, DDR1; settings: DDR1 2.5 nM (aa440-876, GST tag), Kinase Tracer 178 5 nM; read-out: DDR1 pIC50 (converted)
Sequence (Q08345 other isoform, or with tags, fused parts or gaps): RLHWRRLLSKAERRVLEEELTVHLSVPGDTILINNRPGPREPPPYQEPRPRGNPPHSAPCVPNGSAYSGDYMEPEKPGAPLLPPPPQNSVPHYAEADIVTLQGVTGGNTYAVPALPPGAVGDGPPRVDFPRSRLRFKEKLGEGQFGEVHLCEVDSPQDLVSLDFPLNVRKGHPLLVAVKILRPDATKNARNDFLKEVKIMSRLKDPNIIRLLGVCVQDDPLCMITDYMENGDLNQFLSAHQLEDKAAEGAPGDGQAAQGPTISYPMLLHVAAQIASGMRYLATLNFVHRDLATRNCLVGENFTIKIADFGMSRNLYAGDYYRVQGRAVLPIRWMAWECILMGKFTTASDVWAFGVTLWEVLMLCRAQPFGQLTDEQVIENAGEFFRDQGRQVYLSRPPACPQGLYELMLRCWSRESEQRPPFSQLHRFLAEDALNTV
endpoint: IC50

Some compounds with recorded IC50:
[[record]]
compound = "Cn1ncc2cc(Nc3cccc4c3C(=O)N(CC(=O)NC3CC3(F)F)C4)cnc21 (centres unmarked)"
recorded_measurement = "10 to 100 nM"

[[record]]
compound = "Cn1ncc2cc(Nc3cccc4c3C(=O)N(CC(=O)N3CCOC[C@@H]3C(F)(F)F)C4)ccc21"
recorded_measurement = "< 10 nM"

[[record]]
compound = "O=C(CN1Cc2cccc(Nc3cnc4[nH]ncc4c3)c2C1=O)NCC(F)(F)F"
recorded_measurement = "10 to 100 nM"

[[record]]
compound = "Cc1n[nH]c2cc(Nc3cccc4c3C(=O)N(CC(=O)N3CCC[C@H]3C(F)(F)F)C4)cnc12"
recorded_measurement = "< 10 nM"

[[record]]
compound = "CC1c2cccc(Nc3ccc4c(cnn4C)c3)c2C(=O)N1CC(=O)NCC(F)(F)F (centres unmarked)"
recorded_measurement = "10 to 100 nM"

[[record]]
compound = "Cn1ncc2cc(Nc3cccc4c3C(=O)N(CC(=O)NCC(F)(F)F)C4)cnc21"
recorded_measurement = "10 to 100 nM"

[[record]]
compound = "CN(c1cnc2[nH]ncc2c1)c1cccc2c1C(=O)N(CC(=O)NCC(F)(F)F)C2"
recorded_measurement = "10 to 100 nM"

[[record]]
compound = "CN(c1ccc2c(cnn2C)c1)c1cccc2c1C(=O)N(CC(=O)NCC(F)(F)F)C2"
recorded_measurement = "10 to 100 nM"


Here are 3 compounds. What values of IC50 were reported for them?
1. Cc1n[nH]c2cc(Nc3cccc4c3C(=O)N(CC(=O)N3CCC[C@H]3C(F)(F)F)C4)cc(F)c12
2. Cn1ncc2nc(Nc3cccc4c3C(=O)N(CC(=O)N3CCC[C@H]3C(F)(F)F)C4)ccc21
3. Cc1n[nH]c2cc(Nc3cccc4c3C(=O)N(CC(=O)N3CCO[C@@H](C(F)(F)F)C3)C4)cnc12

Response line:
["< 10 nM", "10 to 100 nM", "10 to 100 nM"]
